conditions: in n-propanol, 283.15 K
Value Kind: solubility (mole fraction)

                                   compound  value_reported
0  CN1CCOC(c2ccccc2)c2ccccc2C1.Cl (stereo unspecified)        0.000387

---

conditions: in n-propanol, 273.15 K
Value Kind: solubility (mole fraction)

>>> print(df.to_string())
                                   molecule                  value_kind  value_reported
0  CN1CCOC(c2ccccc2)c2ccccc2C1.Cl (stereo unspecified)  solubility (mole fraction)        0.000291

---

details: in n-butanol, 283.15 K
Value Kind: solubility (mole fraction)

>>> print(df.to_string())
                                   compound                  value_kind  value_reported
0  CN1CCOC(c2ccccc2)c2ccccc2C1.Cl (stereo unspecified)  solubility (mole fraction)        0.000287

---

conditions: in methanol, 308.15 K
Value Kind: solubility (mole fraction)

>>> print(df.to_string())
                                   compound                  value_kind  value_reported
0  CN1CCOC(c2ccccc2)c2ccccc2C1.Cl (stereo unspecified)  solubility (mole fraction)          0.0105

---

conditions: in n-butanol, 288.15 K
Value Kind: solubility (mole fraction)

>>> df
                                   compound  value_reported
0  CN1CCOC(c2ccccc2)c2ccccc2C1.Cl (stereo unspecified)        0.000369

---

details: in n-propanol, 278.15 K
Value Kind: solubility (mole fraction)

>>> df
                                   compound                  value_kind  value_reported
0  CN1CCOC(c2ccccc2)c2ccccc2C1.Cl (stereo unspecified)  solubility (mole fraction)        0.000328

---

details: in acetone, 318.15 K
Value Kind: solubility (mole fraction)

In [3]: df
Out[3]:
                                   molecule  value_reported
0  CN1CCOC(c2ccccc2)c2ccccc2C1.Cl (stereo unspecified)        0.000373

---

details: in water, 278.15 K
Value Kind: solubility (mole fraction)

                                   molecule                  value_kind  value_reported
0  CN1CCOC(c2ccccc2)c2ccccc2C1.Cl (stereo unspecified)  solubility (mole fraction)         0.00106

---

conditions: in n-butanol, 323.15 K
Value Kind: solubility (mole fraction)

>>> df
                                   molecule  value_reported
0  CN1CCOC(c2ccccc2)c2ccccc2C1.Cl (stereo unspecified)         0.00198

---

conditions: in isobutanol, 308.15 K
Value Kind: solubility (mole fraction)

>>> df
                                   compound  value_reported
0  CN1CCOC(c2ccccc2)c2ccccc2C1.Cl (stereo unspecified)         0.00175

---

details: in n-butanol, 293.15 K
Value Kind: solubility (mole fraction)

>>> print(df.to_string())
                                   compound                  value_kind  value_reported
0  CN1CCOC(c2ccccc2)c2ccccc2C1.Cl (stereo unspecified)  solubility (mole fraction)        0.000463

---

conditions: in ethanol, 288.15 K
Value Kind: solubility (mole fraction)

                                   compound                  value_kind  value_reported
0  CN1CCOC(c2ccccc2)c2ccccc2C1.Cl (stereo unspecified)  solubility (mole fraction)         0.00247

---

settings: in isopropanol, 313.15 K
Value Kind: solubility (mole fraction)

In [3]: df
Out[3]:
                                   compound  value_reported
0  CN1CCOC(c2ccccc2)c2ccccc2C1.Cl (stereo unspecified)        0.000752

---

details: in n-butanol, 298.15 K
Value Kind: solubility (mole fraction)

>>> df
                                   compound  value_reported
0  CN1CCOC(c2ccccc2)c2ccccc2C1.Cl (stereo unspecified)        0.000605

---

conditions: in n-propanol, 288.15 K
Value Kind: solubility (mole fraction)

                                   molecule  value_reported
0  CN1CCOC(c2ccccc2)c2ccccc2C1.Cl (stereo unspecified)        0.000495

---

conditions: in isopropanol, 308.15 K
Value Kind: solubility (mole fraction)

>>> print(df.to_string())
                                   molecule  value_reported
0  CN1CCOC(c2ccccc2)c2ccccc2C1.Cl (stereo unspecified)        0.000608

---

details: in acetone, 323.15 K
Value Kind: solubility (mole fraction)

>>> df
                                   compound  value_reported
0  CN1CCOC(c2ccccc2)c2ccccc2C1.Cl (stereo unspecified)        0.000445

---

details: in water, 313.15 K
Value Kind: solubility (mole fraction)

>>> df
                                   compound                  value_kind  value_reported
0  CN1CCOC(c2ccccc2)c2ccccc2C1.Cl (stereo unspecified)  solubility (mole fraction)         0.00317

---

conditions: in water, 283.15 K
Value Kind: solubility (mole fraction)

In [3]: df
Out[3]:
                                   molecule  value_reported
0  CN1CCOC(c2ccccc2)c2ccccc2C1.Cl (stereo unspecified)         0.00124

---

settings: in methanol, 298.15 K
Value Kind: solubility (mole fraction)

>>> print(df.to_string())
                                   molecule  value_reported
0  CN1CCOC(c2ccccc2)c2ccccc2C1.Cl (stereo unspecified)         0.00856

---

conditions: in water, 298.15 K
Value Kind: solubility (mole fraction)

                                   compound  value_reported
0  CN1CCOC(c2ccccc2)c2ccccc2C1.Cl (stereo unspecified)         0.00199

---

conditions: in methanol, 323.15 K
Value Kind: solubility (mole fraction)

                                   molecule  value_reported
0  CN1CCOC(c2ccccc2)c2ccccc2C1.Cl (stereo unspecified)          0.0143

---

settings: in ethanol, 318.15 K
Value Kind: solubility (mole fraction)

                                   molecule                  value_kind  value_reported
0  CN1CCOC(c2ccccc2)c2ccccc2C1.Cl (stereo unspecified)  solubility (mole fraction)         0.00654

---

details: in water, 303.15 K
Value Kind: solubility (mole fraction)

In [3]: df
Out[3]:
                                   compound  value_reported
0  CN1CCOC(c2ccccc2)c2ccccc2C1.Cl (stereo unspecified)         0.00234

---

details: in isobutanol, 303.15 K
Value Kind: solubility (mole fraction)

                                   molecule  value_reported
0  CN1CCOC(c2ccccc2)c2ccccc2C1.Cl (stereo unspecified)         0.00144

---

settings: in isopropanol, 273.15 K
Value Kind: solubility (mole fraction)

In [3]: df
Out[3]:
                                   molecule                  value_kind  value_reported
0  CN1CCOC(c2ccccc2)c2ccccc2C1.Cl (stereo unspecified)  solubility (mole fraction)        0.000136

---

details: in n-butanol, 313.15 K
Value Kind: solubility (mole fraction)

>>> print(df.to_string())
                                   molecule                  value_kind  value_reported
0  CN1CCOC(c2ccccc2)c2ccccc2C1.Cl (stereo unspecified)  solubility (mole fraction)         0.00125

---

settings: in acetone, 303.15 K
Value Kind: solubility (mole fraction)

In [3]: df
Out[3]:
                                   compound  value_reported
0  CN1CCOC(c2ccccc2)c2ccccc2C1.Cl (stereo unspecified)        0.000215

---

conditions: in isobutanol, 313.15 K
Value Kind: solubility (mole fraction)

In [3]: df
Out[3]:
                                   molecule                  value_kind  value_reported
0  CN1CCOC(c2ccccc2)c2ccccc2C1.Cl (stereo unspecified)  solubility (mole fraction)         0.00214
